Tested on: SK-MEL-5 melanoma
assay notes: NCI tumour cell line growth inhibition, 48 h
parameter measured: TGI

compound: Cc1cccc(C(=O)O)c1CC1NCCC2c3ccccc3NC12 (stereo not drawn)
parameter measured: TGI
recorded measurement: > 100 µM

compound: Cc1cc2c(=O)cc(-c3ccc(F)cc3)oc2c(C(=O)O)c1C
parameter measured: TGI
recorded measurement: > 100 µM

compound: O=C1C2CC=CCC2C(=O)N1n1c(Cc2ccccc2)n[nH]c1=O (stereo not drawn)
parameter measured: TGI
recorded measurement: > 100 µM

compound: CC(C)(SCc1ccccc1)C(N)C(=O)O (stereo not drawn)
parameter measured: TGI
recorded measurement: > 100 µM

compound: Cc1ccc(S(=O)(=O)N2CCCSCCN(S(=O)(=O)c3ccc(C)cc3)CCCSCC2)cc1
parameter measured: TGI
recorded measurement: > 100 µM

compound: Cc1cc(NS(=O)(=O)c2ccc(NC(=O)COC(=O)c3cccc4c(=O)c5ccccc5[nH]c34)cc2)no1
parameter measured: TGI
recorded measurement: > 100 µM

compound: COc1ccc(C(=O)OC2C(OC3C(O)COC(O[C@H]4C[C@H]5[C@@H]6CC=C7C[C@@H](O)CC[C@]7(C)[C@H]6CC[C@]5(C)[C@H]4[C@H](C)C(=O)CCC(C)C)C3OC(C)=O)OCC(O)C2O)cc1 (stereo partly drawn)
parameter measured: TGI
recorded measurement: 0.0204 µM

compound: N#CCCN(CCC#N)c1ccc(C(N=Nc2ccc(Cl)cc2)=Nc2ccc(Cl)cc2)cc1
parameter measured: TGI
recorded measurement: 24.7 µM

compound: C[N+](C)(C)C(C1=CCCC1=O)c1ccccc1 (stereo not drawn)
parameter measured: TGI
recorded measurement: > 100 µM

compound: CCN(Cc1cccc(F)c1F)c1ccc(CO)c(Cl)c1
parameter measured: TGI
recorded measurement: 23.4 µM

compound: Nc1ncnc2nn(C3OC(CO)C(O)C3O)nc12 (stereo not drawn)
parameter measured: TGI
recorded measurement: 39.7 µM

compound: Cc1cnc(SCCN2CCN(C)CC2)nc1-c1cc2ccccc2s1
parameter measured: TGI
recorded measurement: 14.6 µM

compound: Cn1c(C(C)(C)OC(=O)Oc2ccccc2)cnc1[N+](=O)[O-]
parameter measured: TGI
recorded measurement: > 100 µM

compound: Nc1cc2nc3ccccc3oc-2cc1=O
parameter measured: TGI
recorded measurement: 2.38 µM

compound: O=S(=O)(/N=C(\NO)Nc1ccc(Cl)cc1)C1CC=C(c2ccon2)S1 (stereo not drawn)
parameter measured: TGI
recorded measurement: > 62.1 µM

compound: O[C@H]1[C@H](O)[C@@H](Cn2nnc(-c3ccccc3)c2-c2ccccc2)OCO[C@@H]1Cn1nnc(-c2ccccc2)c1-c1ccccc1
parameter measured: TGI
recorded measurement: 10.2 µM

compound: Brc1ccc(-c2cc(-c3ccc4c(c3)OCO4)c(-c3cccs3)n2Cc2ccccc2)cc1
parameter measured: TGI
recorded measurement: > 100 µM

compound: Cc1ccc(C)c2c(N=Nc3ccccc3[N+](=O)[O-])c(O)[nH]c12
parameter measured: TGI
recorded measurement: > 100 µM

compound: Cn1c(=O)c2nc(NCCO)cnc2n(C)c1=O
parameter measured: TGI
recorded measurement: > 100 µM

compound: CC1(C)CC(=O)c2c(ccc(C(=O)C[C@@H](N)CO)c2N)O1
parameter measured: TGI
recorded measurement: > 43.9 µM

compound: CC(C)(C)N=CN(C=C(c1ccccc1)c1ccccc1)C1CCCCC1
parameter measured: TGI
recorded measurement: 31.8 µM

compound: O=C1CCC2(c3ccccc3)Nc3ccc(Cl)cc3N12 (stereo not drawn)
parameter measured: TGI
recorded measurement: > 100 µM

compound: Nc1nc(-c2cc(-c3cccc4ccccc34)nc(N)n2)cc(-c2cccc3ccccc23)n1
parameter measured: TGI
recorded measurement: > 100 µM

compound: Clc1ccc(C2=NOC3C4CCC(C4)C23)cc1 (stereo not drawn)
parameter measured: TGI
recorded measurement: > 100 µM

compound: Cc1nc2ccccc2n1Cc1nnc2n1N=C(c1ccccc1)CS2
parameter measured: TGI
recorded measurement: > 100 µM

compound: CC(=O)c1cccc(NC(=O)c2ccc(NC3=C(Cl)C(=O)N(Cc4ccccc4)C3=O)cc2)c1
parameter measured: TGI
recorded measurement: 27.7 µM

compound: Cc1cc(C)c2c(=O)cc(-c3ccc4ccccc4c3)[nH]c2n1
parameter measured: TGI
recorded measurement: 9.42 µM

compound: CCCCCCCCCCCCCCCCOc1ccc(/C=C/C2=[N+](CCCl)CCO2)cc1
parameter measured: TGI
recorded measurement: > 100 µM

compound: CC/C(CC(=O)CCC(=O)Nc1ccc(C)c(C)c1)=N\NC(=O)C(N)=O
parameter measured: TGI
recorded measurement: > 100 µM

compound: CCCCN1CCN(c2ccc3nc(-c4ccc5nc(-c6ccc(OCC)c(OCC)c6)[nH]c5c4)[nH]c3c2)CC1
parameter measured: TGI
recorded measurement: 3.16 µM

compound: COC(=O)c1ccc(C)cc1CC1Cc2c(C)cccc2C1=O (stereo not drawn)
parameter measured: TGI
recorded measurement: 19.7 µM

compound: CCN(CC)CC(=O)Nc1ccc2c(c1)C(=O)c1ccc(NC(=O)CN(CC)CC)cc1C2=O
parameter measured: TGI
recorded measurement: 48.9 µM

compound: O=[p+]1c2ccccc2[nH]c2ccccc21
parameter measured: TGI
recorded measurement: > 100 µM

compound: CSc1nc(N)c2c(n1)NC(c1ccccc1)C1CCc3ccccc3C1=N2 (stereo not drawn)
parameter measured: TGI
recorded measurement: > 100 µM

compound: Cn1c2ccccc2c2nnc(NNCc3ccccn3)nc21
parameter measured: TGI
recorded measurement: 1.65 µM

compound: CN(C)c1ccc(/C=N/NC(=O)c2cccc3ccccc23)c(Cl)c1
parameter measured: TGI
recorded measurement: 24.1 µM

compound: CCc1c(C)c2ccc(OCC(=O)N=Nc3c(O)[nH]c4ccccc34)c(C)c2oc1=O
parameter measured: TGI
recorded measurement: > 33.3 µM

compound: C/C(=C1\C(=O)C(c2ccccc2)N(c2ccccc2)C1=O)c1ccc(Cl)cc1 (stereo not drawn)
parameter measured: TGI
recorded measurement: 28.3 µM

compound: CCOP(C)(=O)/C(Cc1ccc(OC)c(OC)c1)=N\O (stereo not drawn)
parameter measured: TGI
recorded measurement: > 100 µM

compound: CCn1c(=O)c2c3cc(OC(C)=O)ccc3oc2c2ccc(OC(C)=O)cc21
parameter measured: TGI
recorded measurement: > 100 µM

compound: Cc1cc2c(=O)[nH]c(N)nc2nc1C
parameter measured: TGI
recorded measurement: > 100 µM

compound: COC1=CC(=O)NCCN1
parameter measured: TGI
recorded measurement: > 100 µM

compound: COC[C@@H](N=CN1CCc2cc(OC)c(OC)cc2C1)C(C)(C)C
parameter measured: TGI
recorded measurement: > 100 µM

Each recorded value in this set is attributed to PubChem BioAssay (NCI).
